The reported numbers originate from patent US4767758A.

Exercise: state measured Cytotoxicity Index (number of cells) for each of the compounds provided.
Test system: L 929 cells
Assay: Cytotoxicity on cell cultures (Table 2)
Conditions: culture time 0 hr; 5 × 10^-5 M; control 40

Consider the reported Cytotoxicity Index (number of cells) for these compounds:
Value of Cytotoxicity Index (number of cells) reported for the compound O=C(O)CCNC(=O)c1ccc([N+](=O)[O-])s1 [Compound 7] is 56 number of cells

Value of Cytotoxicity Index (number of cells) reported for the compound CC(=O)Nc1ccc([N+](=O)[O-])s1 [Compound 11, 5-nitro-2-(N-acetyl)-thienylamine] is 44 number of cells

Value of Cytotoxicity Index (number of cells) reported for the compound O=C(O)CCCNC(=O)c1ccc([N+](=O)[O-])s1 [Compound 8] is 47 number of cells

Batch request: Cytotoxicity Index (number of cells) for each of the following compounds.
1. ON=Cc1ccc(Br)s1 [Compound 13, 5-bromo-2-thiophenaldoxime]
2. NC(=O)c1ccc([N+](=O)[O-])s1 [Compound 5]
3. O=C(O)c1ccc([N+](=O)[O-])s1 [Compound 6]

Result:
1: 43 number of cells; 2: 40 number of cells; 3: 50 number of cells

Value of Cytotoxicity Index (number of cells) reported for the compound O=C(O)C(C(=O)O)c1csc([N+](=O)[O-])c1 [Compound 12, 5-nitro-3-thiophenemalonic acid] is 50 number of cells
